Assay: FP purification and fluorescence characterization in vitro (spectra, extinction coefficient, quantum yield)
Format: physicochemical
Details: evolved APCα FPs, Table 4
Entries and their Excitation Maximum
Number only, in nm; omit the unit.

Answered cases to consult:
# MOLECULE, Excitation Maximum, nm
measured = [
    ("smURFP: small ultra-red fluorescent protein, SEQ ID NO: 13, homodimer, covalently attaches biliverdin (protein, homodimer; biliverdin chromophore; smRUFP Variant Polypeptide) MKTSEQRVNIATLLTENKKKIVDKASQDLWRRHPDLIAPGGIAFSQRDRALCLRDYGWFLHLITFCLLAGDKGPIESIGLISIREMYNSLGVPVPAMMESIRCLKEASLSLLDEEDANETAPYFDYIIKAMS", 642),
    ("R6-6: evolved APCα FP, SEQ ID NO: 7, with BV (protein, biliverdin chromophore; smRUFP Variant Polypeptide) MKTCEQRVKIATLLSENEKKIVDKASQDLWRRRPDLIAPGGIAFSQRERALCLRDYGWYLHLITFCLLAGDKGPIESIGLIGIREMYNSLGVPVPGMMESIRCLKEASLSLLDEEDAKETAPYFDYIIKAMS", 648),
    ("R8-8: evolved APCα FP, SEQ ID NO: 9, with BV (protein, biliverdin chromophore; smRUFP Variant Polypeptide) MKTCEQRVKIATLLSENKKKIVDKASQDLWRRHPDLIAPGGIAFSQRDRALCLRDYGWYLHLITFCLLAGDKGPIESIGLIGIREMYNSLGVPVPAMMESIRCLKEASLSLLDEEDANETAPYFDYIIKAMS", 648),
    ("R5-2: evolved APCα FP, SEQ ID NO: 6, with BV (protein, biliverdin chromophore; smRUFP Variant Polypeptide) MKTCEQRVKIATLLSENEKKIVDKASQDLWRRRPDFIAPGGIAFSQRERALCLRDHRWYLHLITFCLLAGDKDPIESIGLIGIREMYNSLGVPVPGMMESIRCLKEASLSLLDEEDAKETAPYFDYIIKAMS", 671),
    ("R10-10: evolved APCα FP, SEQ ID NO: 11, with BV (protein, biliverdin chromophore; smRUFP Variant Polypeptide) MKTCEQRVNIATLLTENKKKIVDKASQDLWRRHPDLIAPGGIAFSQRDRALCLRDYGWYLHLITFCLLAGDKGPIESIGLIGIREMYNSLGVPVPAMMESIRCLKEASLSLLDEEDANETAPYFDYIIKAMS", 646),
]

Look up Excitation Maximum for this molecule: R2-1 + PCB: evolved APCα FP, SEQ ID NO: 3, with PCB (protein, phycocyanobilin chromophore; smRUFP Variant Polypeptide) MKTGEQRVKIATLLSENEKKIVDKASQDLWRRRPDFIAPGGIAFGQRERALCLRDYGWYLRLITFCLLAGDKDPIESIGLIGVREMYNSLGVPVPGMVESIRCLKEASLSLLDEEDAKETAPYFDYIIQAMS
626

Look up Excitation Maximum for this molecule: R8-9: evolved APCα FP, SEQ ID NO: 10, with BV (protein, biliverdin chromophore; smRUFP Variant Polypeptide) MKTCEQRVNIATLLSENKKKIVDKASQDLWRRRPDLIAPGGIAFSQRDRALCLRDYGWYLHLITFCLLAGDKGPIESIGLIGIREMYNSLGVPVPDMMESIRCLKEASLSLLDEEDAKETAPYFDYIIKAMS
644

Look up Excitation Maximum for this molecule: R3-2 + PCB: evolved APCα FP, SEQ ID NO: 4, with PCB (protein, phycocyanobilin chromophore; smRUFP Variant Polypeptide) MKTGEQRVKIATLLSENEKKIVDKASQDLWRRRPDFIAPGGIAFGQRERALCLRDYGWYLRLITFCLLAGDKDPIESIGLIGIREMYNSLGVPVPGMMESIRCLKEASLSLLDEEDAKETAPYFDYIIQAMS
620

Look up Excitation Maximum for this molecule: R4-1: evolved APCα FP, SEQ ID NO: 5, with BV (protein, biliverdin chromophore; smRUFP Variant Polypeptide) MKTGEQRVKIATLLSENEKKIVDKASQDLWRRRPDFIAPGGIAFSQRERALCLRDYRWYLHLITFCLLAGDKDPIESIGLIGIREMYNSLGVPVPGMMESIRCLKEASLSLLDEEDAKETAPYFDYIIKAMS
647

Look up Excitation Maximum for this molecule: R7-7: evolved APCα FP, SEQ ID NO: 8, with BV (protein, biliverdin chromophore; smRUFP Variant Polypeptide) MKTCEQRVKIATLLSENKKKIVDKASQDLWRRHPDLIAPGGIAFSQRERALCLRDYGWYLHLITFCLLAGDKGPIESIGLIGIREMYNSLGVPVPGMMESIRCLKEASLSLLDEEDAKETAPYFDYIIKAIS
648

Look up Excitation Maximum for this molecule: R11-2: evolved APCα FP, SEQ ID NO: 12, with BV (protein, biliverdin chromophore; smRUFP Variant Polypeptide) MKTCEQRVNIATLLTENKKKIVDKASQDLWRRHPDLIAPGGIAFSQRDRALCLRDYGWYLHLITFCLLAGDKGPIESIGLISIREMYNSLGVPVPAMMESIRCLKEASLSLLEEEDANETAPYFDYIIKAMS
642
